Measured on: T1, recombinant Cad-11 EC1 human IgG1 fusion protein (R&D Systems Cat. No. 1790-CA-050) (human, UniProt P55287 54-617, limits assumed)
T1 construct: bought; also called recombinant human Cad-11 EC1; recombinant human Cad-11 fusion protein; not shown: human IgG1 part
T1 sequence: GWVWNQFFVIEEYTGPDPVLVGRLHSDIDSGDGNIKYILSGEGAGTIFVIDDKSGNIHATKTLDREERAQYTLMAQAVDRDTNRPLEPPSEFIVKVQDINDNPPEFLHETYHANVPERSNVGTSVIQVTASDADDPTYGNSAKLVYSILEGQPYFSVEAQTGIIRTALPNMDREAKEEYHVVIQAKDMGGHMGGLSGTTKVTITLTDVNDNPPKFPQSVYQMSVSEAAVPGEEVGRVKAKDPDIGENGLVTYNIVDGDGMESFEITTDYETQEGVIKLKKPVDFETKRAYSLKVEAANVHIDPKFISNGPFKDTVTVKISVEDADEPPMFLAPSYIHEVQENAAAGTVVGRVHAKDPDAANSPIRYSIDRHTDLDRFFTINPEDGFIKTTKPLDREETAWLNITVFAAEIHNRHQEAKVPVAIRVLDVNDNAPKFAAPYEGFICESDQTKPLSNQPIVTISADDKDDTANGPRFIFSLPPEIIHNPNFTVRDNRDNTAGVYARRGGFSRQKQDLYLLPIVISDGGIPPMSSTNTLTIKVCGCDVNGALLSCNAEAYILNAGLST
Assay remarks: competition ELISA against biotinylated SYN0012/H1M1 (competitor) on coated fusion protein; text says values are normalised to the IC50 of SYN0012
Quantity: IC50 (µg/mL)
Unit µg/mL implied. Number only.

Binder | Unit descriptor | Reported value
SDP061 humanized anti-Cad-11 EC1 antibody (Vκ2/VH1) (antibody, IgG4, V domains shown, humanized IgG4 (S241P), kappa) VH: EVQLVQSGPELKKPGASVKISCKASGYSFTGYFMNWVKQAHGQGLEWIGRINPYTGDTFYNQKFKGRATLTVDKSSSTAYMELVSLSSEDSAVYYCGRLGSRYWYFDVWGQGTTVTVSS VL: DVLMTQTPLSSPVTLGQPASISCRSSQSIIHSNGNTYLEWYLQKPGQSPQLLIYKVSNRFSGVPDRFSGSGSGTDFTLKISRVEAEDVGVYYCFQGSHVPWTFGQGTKLEIK | µg/mL | 0.47
SDP081 humanized anti-Cad-11 EC1 antibody (Vκ2/VH3) (antibody, IgG4, V domains shown, humanized IgG4 (S241P), kappa) VH: EVQLVQSGAEVKKPGASVKISCKASGYSFTGYFMNWVRQAPGQGLEWIGRINPYTGDTFYNQKFKGRATLTVDKSTSTAYMELSSLRSEDTAVYYCGRLGSRYWYFDVWGQGTTVTVSS VL: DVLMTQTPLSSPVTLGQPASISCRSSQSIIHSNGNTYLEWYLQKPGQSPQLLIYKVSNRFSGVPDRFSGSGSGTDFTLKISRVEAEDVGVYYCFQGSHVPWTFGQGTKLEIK | µg/mL | 0.42

Which measured IC50 value corresponds to SDP031 humanized anti-Cad-11 EC1 antibody (Vκ1/VH3) (antibody, IgG4, V domains shown, humanized IgG4 (S241P), kappa) VH: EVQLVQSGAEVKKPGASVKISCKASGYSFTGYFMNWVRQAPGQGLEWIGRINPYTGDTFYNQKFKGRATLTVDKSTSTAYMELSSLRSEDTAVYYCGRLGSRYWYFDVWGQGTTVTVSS VL: DVLMTQTPLSSPVTLGQPASISCRSSQSIIHSNGNTYLEWYLQKPGQSPQLLIYKVSNRFSGVPDRFTGSGSGTDFTLKISRVEAEDVGVYYCFQGSHVPWTFGQGTKLEIK ?
0.84
